- TARGET_DESC: hERG (Homo sapiens, UniProt Q12809)
- Sequence (Q12809 whole entry): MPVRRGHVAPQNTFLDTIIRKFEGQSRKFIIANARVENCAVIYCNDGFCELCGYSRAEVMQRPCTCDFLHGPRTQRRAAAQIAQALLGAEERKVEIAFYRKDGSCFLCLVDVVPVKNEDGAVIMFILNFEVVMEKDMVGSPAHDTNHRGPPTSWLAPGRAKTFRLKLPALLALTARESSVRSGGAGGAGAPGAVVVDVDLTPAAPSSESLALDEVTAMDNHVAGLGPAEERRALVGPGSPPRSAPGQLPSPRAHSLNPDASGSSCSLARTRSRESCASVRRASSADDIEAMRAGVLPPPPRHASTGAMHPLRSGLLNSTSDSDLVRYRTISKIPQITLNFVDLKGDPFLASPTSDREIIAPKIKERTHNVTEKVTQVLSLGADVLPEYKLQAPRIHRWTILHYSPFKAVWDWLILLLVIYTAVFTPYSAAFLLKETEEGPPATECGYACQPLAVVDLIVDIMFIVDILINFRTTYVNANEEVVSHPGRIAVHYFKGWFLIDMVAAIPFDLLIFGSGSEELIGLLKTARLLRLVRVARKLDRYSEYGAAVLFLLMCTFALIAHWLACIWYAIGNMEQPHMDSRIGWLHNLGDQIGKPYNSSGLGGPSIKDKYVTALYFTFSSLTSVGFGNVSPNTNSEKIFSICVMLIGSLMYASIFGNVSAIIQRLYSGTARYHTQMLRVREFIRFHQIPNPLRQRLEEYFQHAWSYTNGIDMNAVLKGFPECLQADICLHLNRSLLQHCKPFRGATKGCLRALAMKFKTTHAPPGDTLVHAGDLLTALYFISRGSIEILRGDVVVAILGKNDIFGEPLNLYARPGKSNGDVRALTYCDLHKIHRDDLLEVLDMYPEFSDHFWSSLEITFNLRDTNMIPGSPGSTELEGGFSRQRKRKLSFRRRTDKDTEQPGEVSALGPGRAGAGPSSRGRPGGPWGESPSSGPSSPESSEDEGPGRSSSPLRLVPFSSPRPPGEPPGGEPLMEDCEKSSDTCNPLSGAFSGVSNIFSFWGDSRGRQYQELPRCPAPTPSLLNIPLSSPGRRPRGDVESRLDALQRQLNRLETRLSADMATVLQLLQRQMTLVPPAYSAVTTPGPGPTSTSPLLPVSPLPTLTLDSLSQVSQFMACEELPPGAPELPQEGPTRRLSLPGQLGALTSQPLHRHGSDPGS
- TEST_NAME: Panlab hERG assay
- Assay type: binding
- Parameters: Eurofins Panlabs
Entries and their inhibition at 10 µM values follow.
Express the result in % but write the number alone.

Example results:
# SMI, inhibition at 10 µM (%)
rows = [
    ("C[C@]12CC=C3C=C4CC[C@@H](N5CC(N)C5)C[C@]45CC[C@]3(O5)[C@@H]1CC[C@@H]2c1ccc2ccncc2c1", 49),
    ("C[C@]12CC=C3C=C4CC[C@@H](N5CC[C@@H](N)C5)C[C@]45CC[C@]3(O5)[C@@H]1CC[C@@H]2c1ccc2ccncc2c1", 34),
]

Now for a further molecule.
Which measured inhibition at 10 µM value corresponds to C[C@]12CC=C3C=C4CC[C@@H](N5C[C@H](O)[C@@H](O)C5)C[C@]45CC[C@]3(O5)[C@@H]1CC[C@@H]2c1ccc2ccncc2c1 ?
20

---

- TARGET_DESC: Adenosine Transporter (Cavia porcellus)
- Sequence (H0V4R7 1-461): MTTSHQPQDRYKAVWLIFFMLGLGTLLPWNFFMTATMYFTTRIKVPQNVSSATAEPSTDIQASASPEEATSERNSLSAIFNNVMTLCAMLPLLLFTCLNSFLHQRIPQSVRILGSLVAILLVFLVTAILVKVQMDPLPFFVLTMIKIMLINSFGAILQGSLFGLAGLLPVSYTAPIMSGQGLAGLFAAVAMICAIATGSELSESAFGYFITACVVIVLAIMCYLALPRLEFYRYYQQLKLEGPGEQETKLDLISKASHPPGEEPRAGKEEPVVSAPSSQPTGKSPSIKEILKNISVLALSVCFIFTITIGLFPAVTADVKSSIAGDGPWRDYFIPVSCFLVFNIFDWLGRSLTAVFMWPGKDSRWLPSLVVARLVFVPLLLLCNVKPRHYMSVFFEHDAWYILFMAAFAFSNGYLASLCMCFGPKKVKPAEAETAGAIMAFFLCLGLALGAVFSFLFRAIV
- TEST_NAME: Panlab assay, Adenosine Transporter
- Type: binding
PROPERTY_LABEL: IC50 (µM)
Quick note: give the figure in µM, leave out the unit.

Given the entry C[C@]12CC=C3C=C4CC[C@@H](O)C[C@]45CC[C@]3(O5)[C@@H]1CC[C@@H]2c1ccc2ccncc2c1 , report its measured IC50.
3.61

---

- TARGET_DESC: hERG channel (IKr) (Homo sapiens)
- Construct: expressed in transfected cells; host or cells: CHO or HEK293 cells
- TEST_NAME: hERG (IKr) current, PatchXpress 7000A planar voltage clamp
- Type: cell-based
- CONDITION_LABEL: human, CHO or HEK293 cells expressing the hERG channel; PatchXpress functional voltage clamp
PROPERTY_LABEL: IC20 (nM)
State the answer as a number, implicitly in nM.

IC20 for C[C@]12CC=C3C=C4CC[C@@H](N5CCC5)C[C@]45CCC3(O5)[C@@H]1CC[C@@H]2c1ccc2ccncc2c1 ?
110

---

- TARGET_DESC: hKCNQ1/hKCNE1 (IKs) (Homo sapiens, UniProt P51787)
- TEST_NAME: IKs current, PatchXpress 7000A planar voltage clamp
- Source text: The objective of this study was to evaluate the in vitro effects of Compound F on three cardiac ion channel currents: IKr, the rapidly activating, delayed rectifier potassium current through hERG channel encoded by human ether-à-go-go-related gene; IKs, the slowly activating, delayed rectifier cardiac potassium channel current encoded by hKCNQ1/hKCNE1; and INa, the human cardiac Na+ channel current encoded by hNav1.5 in CHO or HEK293 cells (Table 7). […]
PROPERTY_LABEL: IC50 (µM)
Kindly answer with a numeric value in µM, unit omitted.

Looking for the measured IC50 of C[C@]12CC=C3C=C4CC[C@@H](N5CCC5)C[C@]45CCC3(O5)[C@@H]1CC[C@@H]2c1ccc2ccncc2c1 , can you help?
17

---

- TARGET_DESC: Tachykinin NK1 (Homo sapiens, UniProt P25103)
- Construct: Eurofins Panlabs
- Sequence (P25103 whole entry): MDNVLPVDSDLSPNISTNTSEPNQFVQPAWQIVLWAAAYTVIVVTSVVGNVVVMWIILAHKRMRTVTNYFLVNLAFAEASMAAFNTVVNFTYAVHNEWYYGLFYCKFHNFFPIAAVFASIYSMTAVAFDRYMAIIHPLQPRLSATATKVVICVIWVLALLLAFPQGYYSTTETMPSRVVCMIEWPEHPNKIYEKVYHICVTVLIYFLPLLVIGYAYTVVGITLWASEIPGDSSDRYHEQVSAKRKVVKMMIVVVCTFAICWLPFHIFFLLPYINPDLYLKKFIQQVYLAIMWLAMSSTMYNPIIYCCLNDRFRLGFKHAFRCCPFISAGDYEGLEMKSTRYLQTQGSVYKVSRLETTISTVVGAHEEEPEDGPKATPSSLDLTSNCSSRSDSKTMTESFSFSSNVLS
- TEST_NAME: Panlab assay, Tachykinin NK1
- Assay type: binding
- CONDITION_LABEL: reference standard
PROPERTY_LABEL: IC50

Enter reported IC50 observed with Tachykinin NK1 (Homo sapiens, UniProt P25103) for Ic1ccccc1CN[C@@H]1C2CCN(CC2)[C@@H]1C(c1ccccc1)c1ccccc1 (racemic) [L-703,606, reference compound]
3.6 nM
